The measurements presented in this section are drawn from patent US20260241062A1.

Kindly supply the reported pKa values for the records listed here.
- test-summary: acid dissociation constant (pKa) of the monomers
Simply state the number, no unit and no words.

Record C=CC(=O)NC(C)C [NIPAM, N-isopropylacrylamide] . Reported pKa: 14.8

Value of pKa reported for the compound C=C(C)C(=O)O [MAA, methacrylic acid] is 4.66

Recorded pKa (compound C=CC(=O)N1CCOCC1 [ACMO, N-acryloylmorpholine] ): -1.08

Entry C=CN1CCCC1=O [NVP, N-vinylpyrrolidone] ; pKa = -0.34
